# systemName: HLA-A*02:01 (Homo sapiens, UniProt P04439, D140Y/D185E/D98H/E176V/E277Q/G131W/G231S/I119V/I121R/I166T/I218V/L300P/L318F/N151K/N90K/P208A/P217A/Q86G/Q94H/R138H/R169H/T345S)
# assayProcedure: MHC binding assay (UV-ligand exchange, beta2m ELISA, peptide exchange yield)
# conditionDescription: binding of HLA-class I restricted peptides to HLA-A*02:01, ranged by peptide exchange yield (UV-ligand exchange, β2m ELISA)
measuredAttribute: Peptide exchange

Use the examples below as a reference point.
| substance | endpointResult |
| --- | --- |
| 575 (YLISQVEGHQV; listed as Homo sapiens) [compound 575] | ″+++″ (≥50% = +++) |
| 4 (GIMEHITKI; listed as Homo sapiens) [compound 4] | ″++++″ (≥75% = ++++) |
| 11 (KIFEMLEGV; listed as Homo sapiens) [compound 11] | ″+++″ (≥50% = +++) |
| 82 (FLSSVTYNL; listed as Homo sapiens) [compound 82] | ″+++″ (≥50% = +++) |
| 562 (YLEELPEKLKL; listed as Homo sapiens) [compound 562] | ″+++″ (≥50% = +++) |
| 220 (LLQKFVPEI; listed as Homo sapiens) [compound 220] | ″++″ (≥20% = ++) |
| 527 (FLLEPGNLEV; listed as Homo sapiens) [compound 527] | ″++++″ (≥75% = ++++) |
| 236 (GLLEAKVSL; listed as Homo sapiens) [compound 236] | ″+++″ (≥50% = +++) |
| 370 (SLLQDLVSV; listed as Homo sapiens) [compound 370] | ″+++″ (≥50% = +++) |
| 344 (YLQDQHLLLTV; listed as Homo sapiens) [compound 344] | ″+++″ (≥50% = +++) |

Prompt: Which value of Peptide exchange has been reported for 226 (MLYVVPIYL; listed as Homo sapiens) [compound 226] in the records?
Response: ″++″ (≥20% = ++)

Prompt: Which value of Peptide exchange has been reported for 336 (ILLTAIVQV; listed as Homo sapiens) [compound 336] in the records?
Response: ″+++″ (≥50% = +++)

Prompt: Which value of Peptide exchange has been reported for 185 (FLIDDKGYTL; listed as Homo sapiens) [compound 185] in the records?
Response: ″++″ (≥20% = ++)

Prompt: Which value of Peptide exchange has been reported for 310 (FLVDTPLARA; listed as Homo sapiens) [compound 310] in the records?
Response: ″++++″ (≥75% = ++++)

Prompt: Which value of Peptide exchange has been reported for 3 (SLASKLTTL; listed as Homo sapiens) [compound 3] in the records?
Response: ″++++″ (≥75% = ++++)

Prompt: Which value of Peptide exchange has been reported for 221 (ALYEEGLLL; listed as Homo sapiens) [compound 221] in the records?
Response: ″++″ (≥20% = ++)

Prompt: Which value of Peptide exchange has been reported for 108 (ALFPGVALLLA; listed as Homo sapiens) [compound 108] in the records?
Response: ″++++″ (≥75% = ++++)

Prompt: Which value of Peptide exchange has been reported for 54 (SLLEQGKEPWMV; listed as Homo sapiens) [compound 54] in the records?
Response: ″+++″ (≥50% = +++)

Prompt: Which value of Peptide exchange has been reported for 93 (LLQAIKLYL; listed as Homo sapiens) [compound 93] in the records?
Response: ″++″ (≥20% = ++)

Prompt: Which value of Peptide exchange has been reported for 512 (SLSEIVPCL; listed as Homo sapiens) [compound 512] in the records?
Response: ″+++″ (≥50% = +++)
